Values from paper PMC8458281

B1: WSC02 [human] / CXCR4 wt (transfected 293T cells) [human] (parent complex)
chain 1: IVRWSKKVPCVS
chain 2: MEGISIYTSDNYTEEMGSGDYDSMKEPCFREENANFNKIFLPTIYSIIFLTGIVGNGLVILVMGYQKKLRSMTDKYRLHLSVADLLFVITLPFWAVDAVANWYFGNFLCKAVHVIYTVNLYSSVLILAFISLDRYLAIVHATNSQRPRKLLAEKVVYVGVWIPALLLTIPDFIFANVSEADDRYICDRFYPNDLWVVVFQFQHIMVGLILPGIVILSCYCIIISKLSHSKGHQKRKALKTTVILILAFFACWLPYYIGISIDSFILLEIIKQGCEFENTVHKWISITEALAFFHCCLNPILYAFLGAKFKTSAQHALTSVSRGSSLKILSKGKRGGHSSVSTESESSSFHSS

# Variants of: B1
# procedure_text: 12G5 antibody competition assay, flow cytometry on transfected 293T cells; 2 h incubation; IC50 set to 1000 µM if above the maximally used concentration; parent: 1e+03 nM; read off a plot
recorded_metric: IC50

> print(dat)
                   variant.code  value.measured
 1  chain 2 D97E, chain 2 V112A        ~1700 nM
 2                 chain 2 D97N      ~380000 nM
 3                chain 2 E277A         ~750 nM
 4                 chain 2 D97Q      ~690000 nM
 5                chain 2 V112L         ~400 nM
 6                chain 2 D262A         ~450 nM
 7                 chain 2 L41A        ~1500 nM
 8                chain 2 D187E         ~420 nM
 9                 chain 2 D97T       ~30000 nM
10                chain 2 V112A         ~600 nM
11                 chain 2 D97S      ~320000 nM
